Ref: a collection of fitness landscapes (doi:10.1016/j.celrep.2020.107928)

B1: Caulobacter ParB omega fusion; a variant is named by its letters at X, in order, B8GW30 (parent)
chain: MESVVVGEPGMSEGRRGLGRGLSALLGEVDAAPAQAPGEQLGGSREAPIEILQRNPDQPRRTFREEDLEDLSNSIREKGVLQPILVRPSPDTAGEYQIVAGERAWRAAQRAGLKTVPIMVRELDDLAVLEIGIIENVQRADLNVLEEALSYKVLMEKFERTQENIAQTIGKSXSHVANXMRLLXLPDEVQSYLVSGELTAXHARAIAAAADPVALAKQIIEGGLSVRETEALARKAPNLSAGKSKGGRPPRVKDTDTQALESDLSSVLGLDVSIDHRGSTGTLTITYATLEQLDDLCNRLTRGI

Variants of: B1
Assay: one-hybrid fitness for binding NBS DNA (the Noc-binding site; scaled: cognate 1, non-cognate 0); higher = stronger binding
Details: with NBS DNA site
Whole data set: some 81,000 sequences, median “one-hybrid fitness for binding NBS DNA” near -0.1, cut for the highest 2% near 0.36. For the sample, the highest values were picked, then their nearest neighbours and some sequences at random.
one-hybrid fitness for binding NBS DNA for assorted variants

RKLN :: ≤ 0.2
SIMW :: ≤ 0.2
QYLS :: 0.256
NRCT :: ≤ 0.2
ISTD :: ≤ 0.2

Recorded result, "QQKH" , one-hybrid fitness for binding NBS DNA: 0.657

Recorded result, "RKRH" , one-hybrid fitness for binding NBS DNA: 0.429

Recorded result, "KRIT" , one-hybrid fitness for binding NBS DNA: 0.481
